Origin of values: patent US10183944B2

Biological target: Syk (356-635 amino acids) catalytic domain (Homo sapiens (Human))
Assay: Inhibition of enzymatic Syk kinase activity (radiometric)
Assay type: biochemical
Details: read-out: IC50 Syk
pIC50: −log10 of the molar value.
For each entry below, report its pIC50 value.

Form field pIC50, entry CC(C)(O)C1CCN(c2ccc(Nc3nc(N4CCC(CC#N)CC4)nc4cn[nH]c(=O)c34)cc2)CC1 [Example 146] : > 8.00

Form field pIC50, entry CN(c1nc(Nc2ccc(N3CCC(CC(=O)O)CC3)cc2)c2c(=O)[nH]ncc2n1)C1CCCCC1 [Example 161] : > 7.30

Form field pIC50, entry O=C(O)CC1CCN(c2ccc(Nc3nc(-c4ccccc4)nc4cn[nH]c(=O)c34)cc2)CC1 [Example 34] : > 7.30

Form field pIC50, entry O=C(O)CC1CCN(c2ccc(Nc3nc(N4CCCCCC4)nc4cn[nH]c(=O)c34)cn2)CC1 [Example 108] : > 8.00

Form field pIC50, entry N#CCC1CCN(c2nc(Nc3ccc(OCCN)cc3)c3c(=O)[nH]ncc3n2)CC1 [Example 200] : > 8.00

// for each compound in input: emit pIC50
1. O=c1[nH]ncc2nc(N3CCCCCC3)nc(Nc3ccc(N(CCO)CCO)cc3)c12 [Example 306]
2. N#CCC1CCN(c2nc(Nc3ccc(N4CCC(Cc5nn[nH]n5)CC4)nc3)c3c(=O)[nH]ncc3n2)CC1 [Example 253]
3. N#CCC1CCN(c2ccc(Nc3nc(N4CCCCCC4)nc4cn[nH]c(=O)c34)cc2)CC1 [Example 113]

Completion:
["> 8.00", "> 7.30", "< 7.00"]
